Structures can show the parent of a compound that is named as a salt.
Each item that follows carries a reported melting point.

The cases that follow already have their melting point on record.
>  <Compound>
CCOC(=O)c1cc(-c2csc(-c3ccnc(NCC4CC4)c3)n2)c(=O)[nH]c1C (as salt: HCl)

>  <Metric Name>
melting point

>  <Measured Result>
> 260 °C

$$$$
>  <Compound>
CCOC(=O)c1cc(-c2csc(-c3ccsc3)n2)c(=O)[nH]c1C

>  <Metric Name>
melting point

>  <Measured Result>
230 °C (dec.)

$$$$
>  <Compound>
CCOC(=O)c1cc(-c2csc(-c3ccc(OC)cc3)n2)c(=O)[nH]c1C

>  <Metric Name>
melting point

>  <Measured Result>
240 °C (dec.)

$$$$
>  <Compound>
Cc1[nH]c(=O)c(-c2csc(-c3ccnc(NCc4ccccn4)c3)n2)cc1C(=O)NCc1ccccn1

>  <Metric Name>
melting point

>  <Measured Result>
> 260 °C

$$$$

`CCOC(=O)c1cc(-c2csc(CSc3ccccc3)n2)c(=O)[nH]c1C` has a reported melting point of 260 °C (dec.)

`CCOC(=O)c1cc(-c2csc(CS(=O)(=O)c3ccc(Cl)cc3)n2)c(=O)[nH]c1C` has a reported melting point of 300 °C (dec.)

`CCOC(=O)c1cc(-c2csc(-c3cccnc3)n2)c(=O)[nH]c1C` has a reported melting point of 230 °C (dec.)

`CCOC(=O)c1cc(-c2csc(-c3ccnc(NCc4cccnc4)c3)n2)c(=O)[nH]c1C` has a reported melting point of 280 °C (dec.)

CCOC(=O)c1cc(-c2csc(-c3ccnc(NCC(N)=O)c3)n2)c(=O)[nH]c1C (as salt: HCl) has a reported melting point of 270 °C (dec.)

`CCOC(=O)c1cc(-c2csc(-c3c(Cl)cncc3Cl)n2)c(=O)[nH]c1C` has a reported melting point of 290 °C (dec.)

`CCOC(=O)c1cc(-c2csc(-c3ccnc(NCCOc4ccccc4)c3)n2)c(=O)[nH]c1C` has a reported melting point of 270 °C (dec.)
